All figures here come from PubChem BioAssay (NCI).

Test system: HCT-15 colon
MEASUREMENT_DESCRIPTION: NCI tumour cell line growth inhibition, 48 h

[
  {
    "COMPOUND": "O=C(OC1C#CCSCC#C/C=C\\1)c1cnc2ccccc2n1 (configuration not stated)",
    "MEASUREMENT_TARGET": "HCT-15 colon",
    "TGI": "> 100 µM"
  },
  {
    "COMPOUND": "Fc1ccc(-c2nn3c(COc4ccccc4Cl)nnc3s2)cc1Oc1ccccc1",
    "MEASUREMENT_TARGET": "HCT-15 colon",
    "TGI": "> 100 µM"
  },
  {
    "COMPOUND": "COc1cc2cc(Oc3ccc(NC(=O)Nc4ccc(F)c(C(F)(F)F)c4)cc3)c(C)nc2cc1OCCN1CCOCC1",
    "MEASUREMENT_TARGET": "HCT-15 colon",
    "TGI": "4.19 µM"
  },
  {
    "COMPOUND": "O=C(O)CSc1nc2ccccc2[nH]1",
    "MEASUREMENT_TARGET": "HCT-15 colon",
    "TGI": "> 100 µM"
  },
  {
    "COMPOUND": "Cc1ccc([I+]c2ccc(C)cc2)cc1",
    "MEASUREMENT_TARGET": "HCT-15 colon",
    "TGI": "> 100 µM"
  },
  {
    "COMPOUND": "CC[C@@]1(O)C(=O)OCc2c1cc1n(c2=O)Cc2cc3c(OC)cccc3nc2-1",
    "MEASUREMENT_TARGET": "HCT-15 colon",
    "TGI": "> 60 µM"
  },
  {
    "COMPOUND": "CC(C)(C)OC(=O)CCC1NC(=O)[C@@H]2Cc3c([nH]c4ccccc34)C(c3ccccc3)N2C1=O (some centres not stated)",
    "MEASUREMENT_TARGET": "HCT-15 colon",
    "TGI": "90.5 µM"
  },
  {
    "COMPOUND": "CNC(=O)Nn1c(SC)nc2ccccc21",
    "MEASUREMENT_TARGET": "HCT-15 colon",
    "TGI": "> 100 µM"
  },
  {
    "COMPOUND": "CNC(=O)N(CCCC(NC(C)=O)C(=O)NCc1ccccc1)Cc1ccccc1 (configuration not stated)",
    "MEASUREMENT_TARGET": "HCT-15 colon",
    "TGI": "> 100 µM"
  },
  {
    "COMPOUND": "O=C(NCCNc1nccc(-c2c(-c3ccc(F)cc3)nc3sccn23)n1)Nc1cccc(C(F)(F)F)c1",
    "MEASUREMENT_TARGET": "HCT-15 colon",
    "TGI": "47.9 µM"
  },
  {
    "COMPOUND": "Brc1ccc2[nH]cc([C@@H]3CN[C@@H](c4c[nH]c5ccc(Br)cc45)CN3)c2c1",
    "MEASUREMENT_TARGET": "HCT-15 colon",
    "TGI": "24.8 µM"
  },
  {
    "COMPOUND": "CN1CCN(Cn2nc(-c3ccccc3)n(/N=C/c3ccc(-c4ccc(Cl)cc4Cl)o3)c2=S)CC1",
    "MEASUREMENT_TARGET": "HCT-15 colon",
    "TGI": "21.2 µM"
  },
  {
    "COMPOUND": "COc1ccccc1NC(=S)NNC(=O)c1cc(-c2ccccc2)nc2ccccc12",
    "MEASUREMENT_TARGET": "HCT-15 colon",
    "TGI": "20.2 µM"
  },
  {
    "COMPOUND": "CO[C@@H]1[C@H](N(C)C(=O)c2ccccc2)C[C@@H]2O[C@]1(C)n1c3ccccc3c3c4c(c5c6ccccc6n2c5c31)C(=O)NC4=O",
    "MEASUREMENT_TARGET": "HCT-15 colon",
    "TGI": "> 100 µM"
  },
  {
    "COMPOUND": "CCOC(=O)C1C(c2ccccc2)C2(C#N)C(=N)OC1(C)C2(C#N)C#N (configuration not stated)",
    "MEASUREMENT_TARGET": "HCT-15 colon",
    "TGI": "> 100 µM"
  },
  {
    "COMPOUND": "COc1ccc(NS(=O)(=O)c2ccc3ncn(NS(=O)(=O)c4ccc(I)cc4)c(=O)c3c2)cc1",
    "MEASUREMENT_TARGET": "HCT-15 colon",
    "TGI": "> 100 µM"
  },
  {
    "COMPOUND": "O=C(/C=C/c1cccnc1)c1ccccc1",
    "MEASUREMENT_TARGET": "HCT-15 colon",
    "TGI": "20.2 µM"
  },
  {
    "COMPOUND": "CCOC(=O)C(=O)N=Nc1c(O)[nH]c2ccccc12",
    "MEASUREMENT_TARGET": "HCT-15 colon",
    "TGI": "> 100 µM"
  },
  {
    "COMPOUND": "CC(C)(Cl)C(Br)CCC(=CCBr)CBr (mixture of isomers)",
    "MEASUREMENT_TARGET": "HCT-15 colon",
    "TGI": "3.75 µM"
  },
  {
    "COMPOUND": "CN1C(=O)CNS1(=O)=O",
    "MEASUREMENT_TARGET": "HCT-15 colon",
    "TGI": "> 100 µM"
  },
  {
    "COMPOUND": "CCOC(=O)c1sc(Nc2cc(Cl)ccc2Cl)nc1C",
    "MEASUREMENT_TARGET": "HCT-15 colon",
    "TGI": "> 100 µM"
  },
  {
    "COMPOUND": "CN(NC(=O)c1ccc(Cl)cc1)C1=NCCCCN1",
    "MEASUREMENT_TARGET": "HCT-15 colon",
    "TGI": "> 100 µM"
  },
  {
    "COMPOUND": "CC(C)C1=CC23CCC4C(C)(C(=O)O)CCCC4(C)C2CC1C1C(=O)N(c2ccc(N4C(=O)C5C6CC7C8(C)CCCC(C)(C(=O)O)C8CCC7(C=C6C(C)C)C5C4=O)cc2)C(=O)C13 (configuration not stated)",
    "MEASUREMENT_TARGET": "HCT-15 colon",
    "TGI": "27.2 µM"
  },
  {
    "COMPOUND": "COc1cc(S(=O)(=O)Nc2ccc(-c3csc(/N=C\\c4ccccc4O)n3)cc2)ccc1Cl",
    "MEASUREMENT_TARGET": "HCT-15 colon",
    "TGI": "> 100 µM"
  },
  {
    "COMPOUND": "Cc1ccc(C2=NN=C3C(c4ccccc4)=Nc4ccccc4N3C2)cc1",
    "MEASUREMENT_TARGET": "HCT-15 colon",
    "TGI": "> 100 µM"
  },
  {
    "COMPOUND": "Cc1ccc(OC2CC(n3cnc4c(=O)[nH]c(Br)nc43)OC2Oc2ccc(C)cc2)cc1 (configuration not stated)",
    "MEASUREMENT_TARGET": "HCT-15 colon",
    "TGI": "91.6 µM"
  },
  {
    "COMPOUND": "O=C1CNC(=O)N1",
    "MEASUREMENT_TARGET": "HCT-15 colon",
    "TGI": "> 1120 µM"
  },
  {
    "COMPOUND": "COc1ccc(/C=C/C(=O)c2ccc(B(O)O)cc2)cc1O",
    "MEASUREMENT_TARGET": "HCT-15 colon",
    "TGI": "> 39.3 µM"
  },
  {
    "COMPOUND": "Brc1ccc(N=C/C=C(\\Nc2ccc(Br)cc2)C23CC4CC(CC(C4)C2)C3)cc1",
    "MEASUREMENT_TARGET": "HCT-15 colon",
    "TGI": "> 46.6 µM"
  },
  {
    "COMPOUND": "CC1NC(=O)c2c(-c3ccccc3)nn(-c3ccccc3)c2NC1=O (configuration not stated)",
    "MEASUREMENT_TARGET": "HCT-15 colon",
    "TGI": "> 100 µM"
  },
  {
    "COMPOUND": "CCNc1nc2c(=O)n(C)c(=O)n(C)c2s1",
    "MEASUREMENT_TARGET": "HCT-15 colon",
    "TGI": "> 100 µM"
  },
  {
    "COMPOUND": "Cc1ccc(NCCO)cc1",
    "MEASUREMENT_TARGET": "HCT-15 colon",
    "TGI": "> 100 µM"
  },
  {
    "COMPOUND": "Cc1ccc(S(=O)(=O)NN=C2C(C)CC(C(C)(C)C)CC2C)cc1 (configuration not stated)",
    "MEASUREMENT_TARGET": "HCT-15 colon",
    "TGI": "34.4 µM"
  },
  {
    "COMPOUND": "O=C(CSc1nc(-c2ccccc2)c(-c2ccccc2)[nH]1)N/N=C/c1ccc([N+](=O)[O-])cc1",
    "MEASUREMENT_TARGET": "HCT-15 colon",
    "TGI": "28.1 µM"
  },
  {
    "COMPOUND": "Cc1cc2c(=O)c3ccc(Cl)cc3[nH]c2c(C(=O)O)c1C",
    "MEASUREMENT_TARGET": "HCT-15 colon",
    "TGI": "> 100 µM"
  },
  {
    "COMPOUND": "CNc1cccc(-c2cc(=O)c3cc4c(cc3[nH]2)OCO4)c1",
    "MEASUREMENT_TARGET": "HCT-15 colon",
    "TGI": "3.66 µM"
  },
  {
    "COMPOUND": "Nc1c2ccccc2nc2nccnc12",
    "MEASUREMENT_TARGET": "HCT-15 colon",
    "TGI": "> 100 µM"
  },
  {
    "COMPOUND": "CC[C@H](C)[C@H](NC(=O)[C@H](Cc1ccc(O)cc1)NCC(F)(F)F)C(=O)OC(C)(C)C",
    "MEASUREMENT_TARGET": "HCT-15 colon",
    "TGI": "34.2 µM"
  },
  {
    "COMPOUND": "CC(C)c1ccc2c(c1)CCC1C(C)(CN)CCCC21C (configuration not stated)",
    "MEASUREMENT_TARGET": "HCT-15 colon",
    "TGI": "3.17 µM"
  },
  {
    "COMPOUND": "CN1CCC2(CC1)C(=O)N(NC(N)=O)C(=O)C2c1ccccc1 (configuration not stated)",
    "MEASUREMENT_TARGET": "HCT-15 colon",
    "TGI": "> 100 µM"
  },
  {
    "COMPOUND": "O=C(NCCCNc1cc(-c2cn(-c3ccccc3)nc2-c2cccc(O)c2)ccn1)c1ccc(F)cc1",
    "MEASUREMENT_TARGET": "HCT-15 colon",
    "TGI": "4.7 µM"
  },
  {
    "COMPOUND": "Cc1ccc2[nH]c3c(C)c4cc[n+](C)cc4c(C)c3c2c1",
    "MEASUREMENT_TARGET": "HCT-15 colon",
    "TGI": "> 82.6 µM"
  }
]
